- Tested on: FaDu cells
- Measurement Notes: CellTiter-Glo in vitro cell proliferation assay, Example 8
- Format: cell-based, Human
- Cond: H&N - SC, read-out: Mean IC50
Measured IC50 values are reported for all entries that follow.

Here's what some known entries look like.
[
  {
    "Compound Structure String": "COc1cccc(C(CC2=NCCc3c2[nH]c2cc(OC)ccc32)CC2=NCCc3c2[nH]c2cc(OC)ccc32)c1",
    "IC50": "6.62 µM"
  },
  {
    "Compound Structure String": "COc1ccc2c3c([nH]c2c1)C(CC(CC1=NCCc2c1[nH]c1cc(OC)ccc21)c1cccc(-c2ccccc2)c1)=NCC3",
    "IC50": "49.2 µM"
  },
  {
    "Compound Structure String": "COc1ccc2c3c([nH]c2c1)C(CC(CC1=NCCc2c1[nH]c1cc(OC)ccc21)c1cc(OC)c(O)c([N+](=O)[O-])c1)=NCC3",
    "IC50": "22.3 µM"
  },
  {
    "Compound Structure String": "COc1ccc2c3c([nH]c2c1)C(CC(CC1=NCCc2c1[nH]c1cc(OC)ccc21)c1ccc(C(C)C)cc1)=NCC3",
    "IC50": "11.4 µM"
  },
  {
    "Compound Structure String": "COc1ccc2c3c([nH]c2c1)C(CC(CC1=NCCc2c1[nH]c1cc(OC)ccc21)c1ccc(OC)c(OC)c1)=NCC3",
    "IC50": "7.69 µM"
  }
]

Query: I have this molecule here, "COc1ccc2c3c([nH]c2c1)C(CC(CC1=NCCc2c1[nH]c1cc(OC)ccc21)c1ccccc1OC)=NCC3" , and I need its recorded IC50.
Result: 5.36 µM

Query: I have this molecule here, "COc1ccc2c3c([nH]c2c1)C(CC(CC1=NCCc2c1[nH]c1cc(OC)ccc21)c1cc(Br)c(O)c(OC)c1)=NCC3" , and I need its recorded IC50.
Result: 18.2 µM

* * *

Measured IC50 values are reported for all entries that follow.
- Test system: L363 cells
- Measurement Notes: CellTiter-Glo in vitro cell proliferation assay, Example 8
- Assay type: cell-based, Human
- Cond: L363, PCL/MM; read-out: Mean IC50
The figure you give is taken to be in µM; do not add the unit.

Here's what some known entries look like.
[
  {
    "Compound Structure String": "COc1ccc2c3c([nH]c2c1)C(CC(CC1=NCCc2c1[nH]c1cc(OC)ccc21)c1ccc(C(C)C)cc1)=NCC3",
    "Value Observed": 11.4
  },
  {
    "Compound Structure String": "COc1ccc2c3c([nH]c2c1)C(CC(CC1=NCCc2c1[nH]c1cc(OC)ccc21)c1ccc(F)c(Oc2ccccc2)c1)=NCC3",
    "Value Observed": 36.8
  }
]

Alright, here's another compound for you.
Query: I have this compound here, "COc1ccc2c3c([nH]c2c1)C(CC(CC1=NCCc2c1[nH]c1cc(OC)ccc21)c1cccc(-c2ccccc2)c1)=NCC3" , and I need its recorded IC50.
Result: 34.8

* * *

Measured pIC50 values are reported for all entries that follow.
- Test system: FaDu cells
- Measurement Notes: CellTiter-Glo in vitro cell proliferation assay, Example 8
- Assay type: cell-based, Human
- Cond: H&N - SC, read-out: Mean IC50
# pIC50 is unitless: minus log10 of the molar concentration; print number only

Here's what some known entries look like.
[
  {
    "Compound Structure String": "COc1ccc2c3c([nH]c2c1)C(CC(CC1=NCCc2c1[nH]c1cc(OC)ccc21)c1cc(F)c(F)cc1F)=NCC3",
    "Measured Attribute": "pIC50",
    "Value Observed": 5.21
  },
  {
    "Compound Structure String": "CCOc1cc(C(CC2=NCCc3c2[nH]c2cc(OC)ccc32)CC2=NCCc3c2[nH]c2cc(OC)ccc32)ccc1O",
    "Measured Attribute": "pIC50",
    "Value Observed": 4.87
  }
]

Query: I have this molecule here, "COc1ccc2c3c([nH]c2c1)C(CC(CC1=NCCc2c1[nH]c1cc(OC)ccc21)c1cccc(F)c1)=NCC3" , and I need its recorded pIC50.
Result: 5.39

Query: I have this molecule here, "COc1ccc2c3c([nH]c2c1)C(CC(CC1=NCCc2c1[nH]c1cc(OC)ccc21)c1cc(O)c(OC)c(OC)c1)=NCC3" , and I need its recorded pIC50.
Result: 4.78
